FYI, the data here is from patent US20260297060A1.

- EXPERIMENT NOTES: Pharmacokinetics in female BALB/c nude mice bearing A375 xenografts, 1 day dosing (PK and PD study): plasma, tumor and brain concentrations, AUC
- Format: in vivo
- SETTINGS: mouse, plasma, po, 6 mg/kg, 6 mg/kg p.o. QD × 1 day; 10 h; read-out: Mean Concentration in Plasma ± SEM
EXPERIMENTAL READOUT: concentration at 10 h
Quick note: unit goes after the number.

concentration at 10 h lookup needed for "CCN(C)S(=O)(=O)Nc1ccc(F)c(Oc2ccc3ncn([C@H]4COC5(CCN(C6CC7(C6)CN(c6cc8c(cc6F)c(N6CCC(=O)NC6=O)nn8C)C7)CC5)C4)c(=O)c3c2)c1C#N" , thanks.
3110 ng/mL
